Examples of binders with documented t ½ follow.
- assayTarget: T1, serum resistance-associated protein (SRA) from Trypanosoma brucei rhodesiense, recombinant SRA (SEQ ID NO: … (Trypanosoma brucei rhodesiense, UniProt O96637 31-274))
- T1 construct: also called SRA protein
- T1 sequence: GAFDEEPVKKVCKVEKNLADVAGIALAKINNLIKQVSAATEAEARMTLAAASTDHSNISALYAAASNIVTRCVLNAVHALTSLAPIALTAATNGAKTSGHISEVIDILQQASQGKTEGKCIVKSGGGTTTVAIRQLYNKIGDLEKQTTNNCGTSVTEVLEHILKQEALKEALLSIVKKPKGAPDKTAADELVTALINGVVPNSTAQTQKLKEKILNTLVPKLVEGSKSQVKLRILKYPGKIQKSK
- procedureText: SPR, mAb captured, 25C, pH 7.4
assayEndpoint: t ½

binder="H1H10026P (antibody, V domains shown, Fully human antibody with human IgG1 Fc (prefix H1H)) VH: QVQLVESGGGVVQPGRSLRLSCEASGFTFSIYGMHWVRQAPGKGLEWVAVISYDGTNRYYADSVKGRFTISRDNSKNTLYLQMNSLRAEDTAVYYCAKVNIWNFLFDYWGQGTLVTVSS VL: EIVLTQSPGTLSLSPGERATLSCRASQSVSGNYLAWYQQKPGQAPRLLIYGPSSRATGIPDRFSGSGSGTDFTLTISRLEPEDFAVYYCQQYGTSLTFGGGTKVEIK" assayendpoint="t ½" result="≥ 231 min"
binder="H1H10069P (antibody, V domains shown, Fully human antibody with human IgG1 Fc (prefix H1H)) VH: QVQLQESGPGLVKPSETLSLTCSVSGGSFTNYYWSWIRQPPGKGLEWIGSVFYSGTTNYNPSLQSRVTLSIETSKNQFSLRLNSVTAADTAVYYCARDQGAAALDYWGQGTLVTVSS VL: DIQMTQSPSTLSASVGDRLTITCRASQSINNWLAWYQQKPGKAPKLLIYKASNLESGVPSRFSGSGSGTEFTLTISNLQPDDFATYYCQQYNSFFLTFGGGTKVEIK" assayendpoint="t ½" result="≥ 231 min"
binder="H1H10067P (antibody, V domains shown, Fully human antibody with human IgG1 Fc (prefix H1H)) VH: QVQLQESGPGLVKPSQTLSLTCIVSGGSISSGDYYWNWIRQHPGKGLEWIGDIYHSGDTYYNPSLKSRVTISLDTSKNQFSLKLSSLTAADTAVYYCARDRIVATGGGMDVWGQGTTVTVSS VL: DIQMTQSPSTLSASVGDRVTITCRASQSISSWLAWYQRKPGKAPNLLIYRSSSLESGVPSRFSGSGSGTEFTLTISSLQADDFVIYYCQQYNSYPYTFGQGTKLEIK" assayendpoint="t ½" result="≥ 231 min"

Entry source: patent US20150376269A1
